System: U2OS
Assay: Multiplex assay against U2OS
Type: toxicity, cell-based
Details: human, 12 h, 1 µM, compound concentration 1 uM, replicate 2
Tick rule met if Population Pyknosed Nuclei (%) is 4% or greater. Tick rule not met if Population Pyknosed Nuclei (%) is less than 4%.

compound=CN(C)CCOc1ccc(-c2nc(-c3ccncc3)c(-c3ccc4c(c3)CC/C4=N\O)[nH]2)cc1 classification="rule met"
compound=CCCn1c(=O)c2[nH]c(C34CC5CC(CC3C5)C4)nc2n(CCC)c1=O classification="rule met"
compound=Nc1nc2c(c(N3CCNCC3)n1)CCC1=C2[C@@H]2CCCC[C@@H]2O1 classification="rule met"
compound="CCC(=O)O[C@]1(C(=O)SCF)[C@H](C)C[C@H]2[C@@H]3C[C@H](F)C4=CC(=O)C=C[C@]4(C)[C@@]3(F)[C@@H](O)C[C@@]21C [FLUTICASONE PROPIONATE]" classification="rule met"
compound=Cc1cc2c(cc1N1C(=O)c3cccc4c(CCCO)ccc(c34)C1=O)n(C)c(=O)n2C classification="rule not met"
compound=CNC(=O)c1cc(Oc2ccc(NC(=O)Nc3cc(C(C)(C)C)nn3-c3ccc4ncccc4c3)c(F)c2)ccn1 classification="rule not met"

* * *

System: U2OS
Assay: Multiplex assay against U2OS
Format: toxicity, cell-based
Settings: human, 24 h, 10 µM, compound concentration 10 uM, replicate 2
Reported Population Fragmented Nuclei (%) values for the following compounds.
Property: Population Fragmented Nuclei (%)

compound=c1ccc2oc(-c3csc(C4CCN(Cc5nc6ncccc6[nH]5)CC4)n3)cc2c1 measured_result=4%
compound=O=C(O)c1ccc2c(c1)nc(Nc1cccc(Cl)c1)c1ccncc12 measured_result=8%
compound="Cc1nc(Cc2cccc(C(F)(F)F)c2)sc1-c1ccc(C(N)=O)nc1 [TP-024n]" measured_result=14%
compound=Cc1cc2c(cc1N1C(=O)c3cccc4c(CCCO)ccc(c34)C1=O)n(C)c(=O)n2C measured_result=18%
compound=CC(C)N1CCC(C)(C)c2cc(C#Cc3ccc(C(=O)O)cc3)ccc21 measured_result=49%
compound=Cl.Cl.NC1(c2ccc(-c3nc4ccn5c(=O)[nH]nc5c4cc3-c3ccccc3)cc2)CCC1 measured_result=18%
compound=Nc1nc2c(c(N3CCNCC3)n1)CCC1=C2[C@@H]2CCCC[C@@H]2O1 measured_result=8%
compound=CCOc1cc(N2CCC(O)CC2)ccc1Nc1ncc2c(n1)N(C1CCCC1)CCC(=O)N2C measured_result=9%
compound=CC(=O)c1cc(-c2cc(C(=O)NC3CC3)ccc2C)c2ncccn12 measured_result=11%
compound=CCc1cc2c(cc1CC)CC(NC[C@H](O)c1ccc(O)c3[nH]c(=O)ccc13)C2 measured_result=11%
compound=CN(C)CCOc1ccc(-c2nc(-c3ccncc3)c(-c3ccc4c(c3)CC/C4=N\O)[nH]2)cc1 measured_result=7%
compound="CCn1c(-c2nonc2N)nc2cnc(Oc3cccc(NC(=O)c4ccc(OCCN5CCOCC5)cc4)c3)cc21 [GSK-269962A]" measured_result=30%
compound=COc1ccc(NS(=O)(=O)c2sc3ccc(Cl)cc3c2C)cc1N1CCNCC1.Cl measured_result=16%
compound=CNc1oc(-c2cccc3ccccc23)nc1C#N measured_result=57%
compound=Nc1ccc(C(=O)Nc2cccc(-c3nc(N4CCOCC4)c4oc5ncccc5c4n3)c2)cn1 measured_result=60%
compound=N#Cc1cnc(Nc2cc(NC[C@H]3CNCCO3)c(C(F)(F)F)cn2)cn1 measured_result=5%
compound=CC(C)(C)c1cnc(CSc2cnc(NC(=O)C3CCNCC3)s2)o1 measured_result=12%
compound=COc1cc2c(NC3CCN(C(C)C)CC3)nc(N3CCC(F)(F)CC3)nc2cc1OCCCN1CCCC1 measured_result=18%
compound=CCCn1c(=O)c2[nH]c(C34CC5CC(CC3C5)C4)nc2n(CCC)c1=O measured_result=9%

* * *

Tested on: U2OS
Assay: Multiplex assay against U2OS
Type: toxicity, cell-based
Settings: human, 48 h, 10 µM, compound concentration 10 uM, replicate 1
Property: Population Mitotic Cells (%)

compound="CCn1c(-c2nonc2N)nc2cnc(Oc3cccc(NC(=O)c4ccc(OCCN5CCOCC5)cc4)c3)cc21 [GSK-269962A]" property="Population Mitotic Cells (%)" measurement_units=% measured_result=35
compound=CNc1oc(-c2cccc3ccccc23)nc1C#N property="Population Mitotic Cells (%)" measurement_units=% measured_result=12
compound=CC(C)N1CCC(C)(C)c2cc(C#Cc3ccc(C(=O)O)cc3)ccc21 property="Population Mitotic Cells (%)" measurement_units=% measured_result=69
compound="CCc1cc2c(cc1CC)CC(NC[C@H](O)c1ccc(O)c3[nH]c(=O)ccc13)C2 [INDACATEROL]" property="Population Mitotic Cells (%)" measurement_units=% measured_result=15
compound=Nc1nc2c(c(N3CCNCC3)n1)CCC1=C2[C@@H]2CCCC[C@@H]2O1 property="Population Mitotic Cells (%)" measurement_units=% measured_result=37

* * *

Population Normal (%) values, listed per item
Tested on: Fibroblast
Assay: Multiplex assay against human fibroblast
Format: toxicity, cell-based
Settings: 12 h, 1 µM, compound concentration 1 uM, replicate 1
Property: Population Normal (%)

molecule="CCOc1cc2ncc(C#N)c(Nc3ccc(OCc4cccc(F)c4)c(Cl)c3)c2cc1NC(=O)/C=C/CN(C)C [HKI-357]" measurement_target=Fibroblast measured_result=85
molecule=COc1cc2c(NC3CCN(C(C)C)CC3)nc(N3CCC(F)(F)CC3)nc2cc1OCCCN1CCCC1 measurement_target=Fibroblast measured_result=88
molecule=CC(=O)c1cc(-c2cc(C(=O)NC3CC3)ccc2C)c2ncccn12 measurement_target=Fibroblast measured_result=83
molecule="CN(C)C/C=C/C(=O)Nc1cc2c(Nc3ccc(F)c(Cl)c3)ncnc2cc1O[C@H]1CCOC1.O=C(O)/C=C\\C(=O)O.O=C(O)/C=C\\C(=O)O [AFATINIB DIMALEATE]" measurement_target=Fibroblast measured_result=86
molecule="CC(C)(C)c1cnc(CSc2cnc(NC(=O)C3CCNCC3)s2)o1 [BMS-387032]" measurement_target=Fibroblast measured_result=87
molecule="CNC(=O)c1nn(C)c2c1C(C)(C)Cc1cnc(Nc3ccc(N4CCN(C)CC4)cc3)nc1-2 [MILCICLIB]" measurement_target=Fibroblast measured_result=93
molecule=COc1ccc(NS(=O)(=O)c2sc3ccc(Cl)cc3c2C)cc1N1CCNCC1.Cl measurement_target=Fibroblast measured_result=89
molecule="CCn1c(-c2nonc2N)nc2cnc(Oc3cccc(NC(=O)c4ccc(OCCN5CCOCC5)cc4)c3)cc21 [GSK-269962A]" measurement_target=Fibroblast measured_result=87
molecule=Cc1cc2c(cc1N1C(=O)c3cccc4c(CCCO)ccc(c34)C1=O)n(C)c(=O)n2C measurement_target=Fibroblast measured_result=82
molecule="CCc1cc2c(cc1CC)CC(NC[C@H](O)c1ccc(O)c3[nH]c(=O)ccc13)C2 [INDACATEROL]" measurement_target=Fibroblast measured_result=90
molecule="N#Cc1cnc(Nc2cc(NC[C@H]3CNCCO3)c(C(F)(F)F)cn2)cn1 [SRA-737]" measurement_target=Fibroblast measured_result=86
molecule=CC(C)N1CCC(C)(C)c2cc(C#Cc3ccc(C(=O)O)cc3)ccc21 measurement_target=Fibroblast measured_result=58
molecule=Cl.Cl.Nc1ncnc2c1c(-c1cccc(OCc3ccccc3)c1)cn2[C@H]1C[C@@H](CN2CCC2)C1 measurement_target=Fibroblast measured_result=77
molecule=Cl.Cl.NC1(c2ccc(-c3nc4ccn5c(=O)[nH]nc5c4cc3-c3ccccc3)cc2)CCC1 measurement_target=Fibroblast measured_result=57
molecule="Cc1nc(Cc2cccc(C(F)(F)F)c2)sc1-c1ccc(C(N)=O)nc1 [TP-024n]" measurement_target=Fibroblast measured_result=88
molecule=c1ccc2oc(-c3csc(C4CCN(Cc5nc6ncccc6[nH]5)CC4)n3)cc2c1 measurement_target=Fibroblast measured_result=85
molecule="O=C(O)c1ccc2cc(-c3ccc(O)c(C45CC6CC(CC(C6)C4)C5)c3)ccc2c1 [O-DEMETHYLATED ADAPALENE]" measurement_target=Fibroblast measured_result=81

* * *

System: HEK-293T
Assay: Multiplex assay against HEK293T
Type: toxicity, cell-based
Conditions: human, 48 h, 1 µM, compound concentration 1 uM, replicate 2
Property: Population Apoptotic (%)

compound=Nc1ccc(C(=O)Nc2cccc(-c3nc(N4CCOCC4)c4oc5ncccc5c4n3)c2)cn1 measurement_target=HEK-293T measured_result=61
compound=Cc1cc2c(cc1N1C(=O)c3cccc4c(CCCO)ccc(c34)C1=O)n(C)c(=O)n2C measurement_target=HEK-293T measured_result=33
compound="CCC(=O)O[C@]1(C(=O)SCF)[C@H](C)C[C@H]2[C@@H]3C[C@H](F)C4=CC(=O)C=C[C@]4(C)[C@@]3(F)[C@@H](O)C[C@@]21C [FLUTICASONE PROPIONATE]" measurement_target=HEK-293T measured_result=9
compound=O=C(O)c1ccc2cc(-c3ccc(O)c(C45CC6CC(CC(C6)C4)C5)c3)ccc2c1 measurement_target=HEK-293T measured_result=15
compound=COc1ccc(NS(=O)(=O)c2sc3ccc(Cl)cc3c2C)cc1N1CCNCC1.Cl measurement_target=HEK-293T measured_result=15
compound=Nc1nc2c(c(N3CCNCC3)n1)CCC1=C2[C@@H]2CCCC[C@@H]2O1 measurement_target=HEK-293T measured_result=12
compound=CCCn1c(=O)c2[nH]c(C34CC5CC(CC3C5)C4)nc2n(CCC)c1=O measurement_target=HEK-293T measured_result=8
compound="Cc1nc(Cc2cccc(C(F)(F)F)c2)sc1-c1ccc(C(N)=O)nc1 [TP-024n]" measurement_target=HEK-293T measured_result=17
